# experimentalProtocol: Pharmacokinetic study in female mice (plasma, liver, bone)
# Type: in vivo, female C57/BL6 mice
# details: female, C57/BL6, mouse, plasma, po, 10 mg/kg, plasma; PO (QD*3) 10 mg/kg; read-out: AUCInf
measuredAttribute: AUC(0-inf) (ng·h/mL)
Please reply with the bare figure in ng·h/mL and do not write the unit itself.

Entry `O=C1Nc2ccc(-c3cc(C(F)(F)F)cc(C(F)(F)F)c3)cc2C(=O)N2CCN(C(=O)COc3ccc(OC(F)(F)F)cc3I)C[C@@H]12` needs its AUC(0-inf) filled in; supply it.
3270

====

# experimentalProtocol: Pharmacokinetic study in female mice (plasma, liver, bone)
# Type: in vivo, female C57/BL6 mice
# details: female, C57/BL6, mouse, liver/plasma, po, 10 mg/kg, PO (QD*3) 10 mg/kg; read-out: Cmax Ratio (Liver/Plasma)
measuredAttribute: Kp
Could you respond with only the numeric value?

Entry `O=C1Nc2ccc(-c3cc(C(F)(F)F)cc(C(F)(F)F)c3)cc2C(=O)N2CCN(C(=O)COc3ccc(OC(F)(F)F)cc3I)C[C@@H]12` needs its Kp filled in; supply it.
9.18

====

Here the recorded % EFF vs. 1 nM INSL3 (a) is given for each entry.
# subjectOfTest: RXFP2 (Homo sapiens, UniProt Q8WXD0)
# Construct: expressed in transfected cells
# Sequence (Q8WXD0 whole entry): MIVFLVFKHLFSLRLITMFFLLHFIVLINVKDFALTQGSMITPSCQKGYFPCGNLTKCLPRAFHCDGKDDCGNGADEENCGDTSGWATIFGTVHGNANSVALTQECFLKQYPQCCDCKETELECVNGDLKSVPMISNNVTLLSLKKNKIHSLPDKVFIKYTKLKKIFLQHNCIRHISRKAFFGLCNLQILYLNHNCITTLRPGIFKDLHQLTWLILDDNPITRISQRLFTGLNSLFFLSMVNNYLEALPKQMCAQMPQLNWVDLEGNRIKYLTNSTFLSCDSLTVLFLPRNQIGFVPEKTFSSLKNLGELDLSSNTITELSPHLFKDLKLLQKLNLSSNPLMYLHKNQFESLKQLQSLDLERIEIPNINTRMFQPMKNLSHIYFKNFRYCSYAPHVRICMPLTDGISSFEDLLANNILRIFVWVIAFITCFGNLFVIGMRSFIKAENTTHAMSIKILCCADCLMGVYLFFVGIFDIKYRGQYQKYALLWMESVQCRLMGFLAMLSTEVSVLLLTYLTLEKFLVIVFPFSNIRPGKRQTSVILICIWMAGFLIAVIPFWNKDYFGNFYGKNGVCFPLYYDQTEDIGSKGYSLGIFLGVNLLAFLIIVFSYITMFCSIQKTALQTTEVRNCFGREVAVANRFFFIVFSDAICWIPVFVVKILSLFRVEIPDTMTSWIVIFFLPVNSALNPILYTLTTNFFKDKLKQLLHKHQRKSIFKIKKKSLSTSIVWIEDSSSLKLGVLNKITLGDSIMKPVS
# experimentalProtocol: HTRF cAMP assay in HEK293T cells stably expressing RXFP2 (HEK-RXFP2)
# Type: cell-based
# details: condition (a): 20,000 cells/well, IBMX 200 μM; maximum cAMP response normalized to 1 nM INSL3 response
Please reply with the bare figure in % and do not write the unit itself.

>  <compound>
O=C1Nc2ccc(-c3cccc(C(F)(F)F)c3)cc2C(=O)N2CCN(C(=O)COc3ccc(OC(F)(F)F)cc3F)CC12 (stereo not shown)

>  <measuredValue>
35.5

$$$$
>  <compound>
O=C1Nc2ccc(-c3ccc(C(F)(F)F)s3)cc2C(=O)N2CCN(C(=O)COc3ccccc3)CC12 (stereo not shown)

>  <measuredValue>
27.96

$$$$
>  <compound>
O=C1Nc2ccc(-c3cccc(C(F)(F)F)c3)cc2C(=O)N2CCN(CCOc3ccccc3)CC12 (stereo not shown)

>  <measuredValue>
0.04

$$$$
>  <compound>
O=C1Nc2ccc(-c3cccc(C(F)(F)F)c3)cc2C(=O)N2CCN(C(=O)COc3ccc(OC(F)(F)F)cc3Cl)C[C@H]12

>  <measuredValue>
43.71

$$$$

Entry `O=C1Nc2ccc(-c3cccc(C(F)(F)F)c3)cc2C(=O)N2CCN(C(=O)COc3ccccc3)C[C@H]12` needs its % EFF vs. 1 nM INSL3 (a) filled in; supply it.
3.69

====

# experimentalProtocol: Pharmacokinetic study in female mice (plasma, liver, bone)
# Assay type: in vivo, female C57/BL6 mice
# details: female, C57/BL6, mouse, plasma, po, 10 mg/kg, Table 10; POB QD × 3, 10 mg/kg; read-out: Half life-t1/2 (converted)
measuredAttribute: half-life

Entry O=C1Nc2ccc(-c3cc(C(F)(F)F)cc(C(F)(F)F)c3)cc2C(=O)N2CCN(C(=O)COc3ccc(OC(F)(F)F)cc3I)C[C@@H]12 [Example 187] needs its half-life filled in; supply it.
5.88 h

====

# experimentalProtocol: Pharmacokinetic study in female mice (plasma, liver, bone)
# Assay type: in vivo, female C57/BL6 mice
# details: female, C57/BL6, mouse, plasma; Table 10; IV 3 mg/kg; read-out: Volume of distribution in steady state-VSSobs
measuredAttribute: Vd (L/kg)
Please reply with the bare figure in L/kg and do not write the unit itself.

Entry O=C1Nc2ccc(-c3cc(C(F)(F)F)cc(C(F)(F)F)c3)cc2C(=O)N2CCN(C(=O)COc3ccc(OC(F)(F)F)cc3I)C[C@@H]12 [Example 187] needs its Vd filled in; supply it.
3.38

====

Here the recorded % EFF vs. 1 nM INSL3 (b) is given for each entry.
# subjectOfTest: RXFP2 (Homo sapiens)
# Construct: expressed in transfected cells
# experimentalProtocol: HTRF cAMP assay in HEK293T cells stably expressing RXFP2 (HEK-RXFP2)
# Type: cell-based
# details: condition (b): 10,000 cells/well, IBMX 200 μM; normalized to 1 nM INSL3 cAMP response
Please reply with the bare figure in % and do not write the unit itself.

Known % EFF vs. 1 nM INSL3 (b) results, listed for orientation:
>  <compound>
Cc1cc(-c2ccc3c(c2)C(=O)N2CCN(C(=O)COc4ccc(OC(F)(F)F)cc4Cl)C[C@H]2C(=O)N3)cc(C(F)(F)F)c1

>  <% EFF vs. 1 nM INSL3 (b) (%)>
103.32

$$$$
>  <compound>
Cc1cc(OC(F)F)ccc1OCC(=O)N1CCN2C(=O)c3cc(-c4cc(O)cc(C(F)(F)F)c4)ccc3NC(=O)[C@@H]2C1

>  <% EFF vs. 1 nM INSL3 (b) (%)>
70.66

$$$$
>  <compound>
Cc1cc(OC(F)(F)F)ccc1OCC(=O)N1CCN2C(=O)c3cc(-c4ccnc(C(F)(F)F)c4)ccc3NC(=O)C2C1 (stereo not shown)

>  <% EFF vs. 1 nM INSL3 (b) (%)>
47.69

$$$$
>  <compound>
O=C1Nc2ccc(-c3cc(C(F)(F)F)ccc3F)cc2C(=O)N2CCN(C(=O)COc3ccc(OC(F)(F)F)cc3Cl)C[C@@H]12

>  <% EFF vs. 1 nM INSL3 (b) (%)>
84.99

$$$$
>  <compound>
Cc1cc(OC(F)(F)F)ccc1OCC(=O)N1CCN2C(=O)c3cc(-c4cc(Cl)cc(C(F)(F)F)c4)ccc3NC(=O)[C@@H]2C1

>  <% EFF vs. 1 nM INSL3 (b) (%)>
126.02

$$$$

Entry N#Cc1cc(-c2ccc3c(c2)C(=O)N2CCN(C(=O)COc4ccc(OC(F)(F)F)cc4Cl)CC2C(=O)N3)cc(C(F)(F)F)c1 (racemic) needs its % EFF vs. 1 nM INSL3 (b) filled in; supply it.
50.30

Entry `O=C1Nc2ccc(-c3cc(O)cc(C(F)(F)F)c3)cc2C(=O)N2CCN(C(=O)COc3ccc(OC(F)(F)F)cc3Br)C[C@@H]12` needs its % EFF vs. 1 nM INSL3 (b) filled in; supply it.
114.71

Entry `O=C1Nc2ccc(-c3cccc(C(F)(F)F)c3)cc2C(=O)N2CCN(C(=O)COc3ccc(C(F)(F)F)c(F)c3F)C[C@@H]12` needs its % EFF vs. 1 nM INSL3 (b) filled in; supply it.
47.43

Entry `O=C1Nc2ccc(-c3cccc(C(F)(F)F)c3)cc2C(=O)N2CCN(C(=O)COc3ccc(OC(F)(F)F)cc3Cl)C[C@@H]12` needs its % EFF vs. 1 nM INSL3 (b) filled in; supply it.
77.84

Entry `O=C1Nc2ccc(-c3cc(C(F)(F)F)cc(C(F)(F)F)c3)cc2C(=O)N2CCN(C(=O)COc3ccc(OC(F)(F)F)cc3Cl)C[C@@H]12` needs its % EFF vs. 1 nM INSL3 (b) filled in; supply it.
108.89

Entry `O=C1Nc2ccc(-c3cc(C(F)(F)F)ccc3F)cc2C(=O)N2CCN(C(=O)COc3ccc(OC(F)(F)F)cc3Cl)C[C@H]12` needs its % EFF vs. 1 nM INSL3 (b) filled in; supply it.
54.37

Entry `Cc1cc(-c2ccc3c(c2)C(=O)N2CCN(C(=O)COc4ccc(OC(F)(F)F)cc4Cl)C[C@H]2CN3)cc(C(F)(F)F)c1.O=C(O)C(F)(F)F` needs its % EFF vs. 1 nM INSL3 (b) filled in; supply it.
0.85

Entry `O=C1Nc2ccc(-c3cc(Cl)cc(C(F)(F)F)c3)cc2C(=O)N2CCN(C(=O)COc3ccc(OC(F)(F)F)cc3Br)C[C@@H]12` needs its % EFF vs. 1 nM INSL3 (b) filled in; supply it.
130.93

Entry `Cc1cc(OC(F)F)ccc1OCC(=O)N1CCN2C(=O)c3cc(-c4cccc(C(F)(F)F)c4)ccc3NC(=O)[C@@H]2C1` needs its % EFF vs. 1 nM INSL3 (b) filled in; supply it.
132.67

Entry Cc1cc(OC(F)(F)F)ccc1OCC(=O)N1CCN2C(=O)c3cc(-c4cccc(C(F)(F)F)n4)ccc3NC(=O)C2C1 (stereo not shown) needs its % EFF vs. 1 nM INSL3 (b) filled in; supply it.
38.19

Entry `O=C1Nc2ccc(-c3cc(Cl)cc(C(F)(F)F)c3)cc2C(=O)N2CCN(C(=O)COc3ccc(OC(F)(F)F)cc3Cl)C[C@@H]12` needs its % EFF vs. 1 nM INSL3 (b) filled in; supply it.
114.25

Entry O=C1Nc2ccc(-c3cc(C(F)(F)F)ccc3F)cc2C(=O)N2CCN(C(=O)COc3ccc(OC(F)(F)F)cc3Cl)CC12 (racemic) needs its % EFF vs. 1 nM INSL3 (b) filled in; supply it.
67.7

Entry `Cc1cc(-c2ccc3c(c2)C(=O)N2CCN(C(=O)COc4ccc(OC(F)F)cc4C)C[C@H]2C(=O)N3)cc(C(F)(F)F)c1` needs its % EFF vs. 1 nM INSL3 (b) filled in; supply it.
131.20

Entry Cc1cc(OC(F)(F)F)ccc1OCC(=O)N1CCN2C(=O)c3cc(-c4cncc(C(F)(F)F)c4)ccc3NC(=O)C2C1 (stereo not shown) needs its % EFF vs. 1 nM INSL3 (b) filled in; supply it.
33.78

Entry `O=C1Nc2ccc(-c3cc(F)cc(C(F)(F)F)c3)cc2C(=O)N2CCN(C(=O)COc3ccc(C(F)(F)F)cc3Cl)C[C@@H]12` needs its % EFF vs. 1 nM INSL3 (b) filled in; supply it.
80.32
